IC50 for BRD2 (Homo sapiens (Human)) - collated from the literature.
EXPERIMENTAL_READOUT: IC50 (nM)

{"MOLECULE": "Cc1cc(N2C(=O)c3cc(-c4ccc(=O)n(C)c4)n(C4CC4)c3C2c2ccc(Cl)cc2)cn(C)c1=O (centres unmarked)", "EXPERIMENTAL_READOUT": "IC50", "QUANTITATIVE_RESULT": 42}
{"MOLECULE": "Cc1cc(N2C(=O)c3c(c(CO)nn3C3CC3)C2c2ccc(Cl)cc2)cn2c(C)nnc12 (centres unmarked)", "EXPERIMENTAL_READOUT": "IC50", "QUANTITATIVE_RESULT": 46}
{"MOLECULE": "CC(C)n1c(-c2ccccn2)nc2c1C(c1ccc(Cl)cc1)N(c1ccc(=O)n(C)c1)C2=O (centres unmarked)", "EXPERIMENTAL_READOUT": "IC50", "QUANTITATIVE_RESULT": 710}

I = Cc1c2c(nn1C)C(=O)N(c1cc(F)c(=O)n(C)c1)C2c1ccc(Cl)cc1 (centres unmarked)
II = Cc1cc(N2C(=O)c3c(c(C(F)(F)F)nn3C3CC3)C2c2ccc(Cl)cc2)cn(C)c1=O (centres unmarked)
III = Cc1cc(N2C(=O)c3c(NC(=O)OC(C)(C)C)cn(C)c3C2c2ccc(Cl)cc2)nc2c1nnn2C (centres unmarked)
IV = COc1nccc(-c2cc3c(n2C)C(c2ccc(Cl)cc2)N(c2cc(Cl)c(=O)n(C)c2)C3=O)n1 (centres unmarked)
Rank by IC50 (largest to smallest). Submit the labels in the order that the ranking request calls for.
I, IV, II, III

----------
IC50 for BRD2 (Homo sapiens (Human), UniProt P25440) - collated from the literature.
EXPERIMENTAL_READOUT: IC50 (nM)

Some solved cases for reference:
{"MOLECULE": "Cc1cc(N2C(=O)c3nc(C4=CCN(S(C)(=O)=O)CC4)n(C(C)C)c3C2c2ccc(Cl)cc2)cn2c(C)nnc12 (stereo not drawn)", "IC50 [nM]": 38}
{"MOLECULE": "CCc1c2c(nn1C1CC1)C(=O)N(c1cc(C)c(=O)n(C)c1)C2c1ccc(Cl)cc1 (stereo not drawn)", "IC50 [nM]": 37}
{"MOLECULE": "COc1ccc(C2c3c(ccn3C)C(=O)N2c2cc(Cl)c(=O)n(C)c2)cc1 (stereo not drawn)", "IC50 [nM]": 850}

P = Cc1cc(N2C(=O)c3nc(C4=CCOCC4)n(C(C)C)c3C2c2ccc(Cl)cc2)cn2c(C(F)F)nnc12 (stereo not drawn)
Q = COc1ccc(-c2nc3c(n2C(C)C)[C@@H](c2ccc(Cl)cc2)N(c2cc(C)c4nnn(C)c4n2)C3=O)cn1
Name the one with the greater IC50 value, either P or Q as given. Could you answer with the label of the item you picked?
P
(P: 60 nM, Q: 42 nM)

----------
IC50 for UniProt P25440 - collated from the literature.
EXPERIMENTAL_READOUT: IC50 (nM)

Some solved cases for reference:
{"MOLECULE": "Cc1nn(C2COC2)c2c1C(c1ccc(Cl)cc1)N(c1cc(C)c(=O)n(C)c1)C2=O (centres unmarked)", "IC50 [nM]": 150}
{"MOLECULE": "COc1cc(N2C(=O)c3nc(C4CC4)n(C(C)C)c3C2c2ccc(Cl)cc2)cn2c(C)nnc12 (centres unmarked)", "IC50 [nM]": 100}
{"MOLECULE": "Cc1nn(C2CC2)c2c1C(c1ccc(Cl)cc1F)N(c1cc(C)c(=O)n(C)c1)C2=O (centres unmarked)", "IC50 [nM]": 92}
{"MOLECULE": "Cc1nn(-c2ccnn2C)c2c1[C@@H](c1ccc(Cl)cc1)N(c1cc(C)c(=O)n(C)c1)C2=O", "IC50 [nM]": 78}
{"MOLECULE": "Cc1cc(N2C(=O)c3nc(C)n(C(C)C)c3C2c2ccc(Cl)cc2)cn2c(C(F)F)nnc12 (centres unmarked)", "IC50 [nM]": 49}

1 = Cn1c(-c2cccc(=O)n2C)cc2c1C(c1ccc(Cl)cc1)N(c1cc(Cl)c(=O)n(C)c1)C2=O (centres unmarked)
2 = CCc1c2c(nn1C(=O)N(C)C)C(=O)N(c1cc(C)c(=O)n(C)c1)C2c1ccc(Cl)cc1 (centres unmarked)
3 = Cc1ccc(C2c3c(ccn3C)C(=O)N2c2cc(Cl)c(=O)n(C)c2)cc1 (centres unmarked)
4 = COc1ccc(-c2nc3c([nH]2)[C@@H](c2ccc(Cl)cc2)N(c2cc(C)c(=O)n(C)c2)C3=O)cn1
5 = COc1ncccc1-c1nc2c(n1C(C)C)C(=O)N(c1cc(C)c(=O)n(C)c1)[C@@H]2c1ccc(Cl)cc1
Rank by IC50 (largest to smallest). Submit the labels in the order that the ranking request calls for.
2, 3, 1, 4, 5
(2: 220 nM, 3: 108 nM, 1: 54 nM, 4: 32 nM, 5: 17 nM)

----------
IC50 for UniProt P25440 - collated from the literature.
EXPERIMENTAL_READOUT: IC50 (µM)

Some solved cases for reference:
{"COMPOUND": "Cn1cc(-c2cc3c(n2C2CC2)C(c2ccc(Cl)cc2)N(c2cc(Cl)c(=O)n(C)c2)C3=O)ccc1=O (stereo not shown)", "EXPERIMENTAL_READOUT": "IC50", "UNITS": "µM", "QUANTITATIVE_RESULT": 0.052}
{"COMPOUND": "CCn1nc(C)c2c1C(=O)N(c1cc(C)c3nnc(C)n3c1)C2c1ccc(F)cc1F (stereo not shown)", "EXPERIMENTAL_READOUT": "IC50", "UNITS": "µM", "QUANTITATIVE_RESULT": 0.062}
{"COMPOUND": "Cc1cc(N2C(=O)c3nc(C4=CC(C)(C)NC(C)(C)C4)n(C(C)C)c3C2c2ccc(Cl)cc2)cn2c(C)nnc12 (stereo not shown)", "EXPERIMENTAL_READOUT": "IC50", "UNITS": "µM", "QUANTITATIVE_RESULT": 0.04}
{"COMPOUND": "Cc1nn(C(C)C)c2c1[C@@H](c1ccc(Cl)cc1)N(c1cc(C)c(=O)n(C)c1)C2=O", "EXPERIMENTAL_READOUT": "IC50", "UNITS": "µM", "QUANTITATIVE_RESULT": 0.014}

1 = Cn1ccc2c1C(c1ccc(C#N)cc1)N(c1cc(Cl)c(=O)n(C)c1)C2=O (stereo not shown)
2 = Cc1cc(N2C(=O)c3c(C4CC4)nn(-c4ccnn4C)c3[C@H]2c2ccc(Cl)cc2)cn(C)c1=O
3 = Cc1cc(N2C(=O)c3nc(C)n(C(C)C)c3C2c2ccc(Cl)cc2)cn2c(C)nnc12 (stereo not shown)
4 = COc1ncccc1-c1nc2c(n1C(C)C)[C@@H](c1ccc(Cl)cc1)N(c1cc(C)c3nnc(C(F)F)n3n1)C2=O
5 = Cc1cc(N2C(=O)c3nc(C4=CCOC4)n(C(C)C)c3C2c2ccc(Cl)cc2)cn2c(CF)nnc12 (stereo not shown)
Ascending sort, IC50. Submit the labels in the order that the ranking request calls for.
4, 5, 3, 2, 1
(4: 0.017 µM, 5: 0.027 µM, 3: 0.078 µM, 2: 0.16 µM, 1: 0.23 µM)

P = Cc1cc(N2C(=O)c3cc(C)n(C)c3C2c2ccc(Cl)cc2)cn(C)c1=O (stereo not shown)
Q = CC(=O)N1CC(n2cc(C)c3c2C(c2ccc(Cl)cc2)N(c2cc(C)c4nnc(C)n4c2)C3=O)C1 (stereo not shown)
R = CCOc1c2c(nn1C)C(=O)N(c1cc(C)c(=O)n(C)c1)C2c1ccc(Cl)cc1 (stereo not shown)
Rank by IC50 (largest to smallest). Submit the labels in the order that the ranking request calls for.
P, R, Q

I = Cc1cc(N2C(=O)c3c(C4CC4)nn(-c4ccnn4C)c3C2c2ccc(Cl)cc2)cn(C)c1=O (stereo not shown)
II = COc1ncccc1-n1nc(C)c2c1C(=O)N(c1cc(C)c3nnc(C)n3c1)C2c1ccc(Cl)cc1F (stereo not shown)
Name the one with the greater IC50 value, either I or II as given. Could you answer with the label of the item you picked?
I
(I: 0.074 µM, II: 0.047 µM)

P = Cc1cc(N2C(=O)c3c(cnn3C3CC3)C2c2ccc(Cl)cc2)cn(C)c1=O (stereo not shown)
Q = Cn1cc(N2C(=O)c3nn(C4CC4)cc3C2c2ccc(Cl)cc2)cc(Cl)c1=O (stereo not shown)
R = CCOC(=O)N1CC(n2nc(C)c3c2C(=O)N(c2cc(C)c4nnc(C)n4c2)C3c2ccc(Cl)cc2)C1 (stereo not shown)
Rank by IC50 (largest to smallest). Submit the labels in the order that the ranking request calls for.
Q, P, R

A = Cc1cc(N2C(=O)c3nn(C4CNC4)c(C)c3C2c2ccc(Cl)cc2)cn2c(C)nnc12 (stereo not shown)
B = CCn1c(-c2ccc(OC)nc2)nc2c1C(=O)N(c1cc(C)c(=O)n(C)c1)[C@@H]2c1ccc(Cl)cc1
Returns the identifier with the smallest measured IC50 among A and B . Could you answer with the label of the item you picked?
B
(B: 0.024 µM, A: 0.1 µM)

A = Cn1cc(N2C(=O)c3cc(-c4cccc(=O)n4C)n(C4CC4)c3C2c2ccc(Cl)cc2)cc(Cl)c1=O (stereo not shown)
B = COc1cc(N2C(=O)c3nc(C4=CCOCC4)n(C(C)C)c3C2c2ccc(Cl)cc2)cc2c1nnn2C (stereo not shown)
Name the one with the greater IC50 value, either A or B as given. Could you answer with the label of the item you picked?
A
